- MEASURED_ON: Gal(b1-4)GlcNAc(b1-3)Gal(b1-4)GlcNAc(b1-3)Gal(b1-4)GlcNAc(b1-3)Gal(b1-4)GlcNAc(b1-3)Gal(b1-4)GlcNAc(b1-2)Man(a1-3)[Gal(b1-4)GlcNAc(b1-3)Gal(b1-4)GlcNAc(b1-3)Gal(b1-4)GlcNAc(b1-3)Gal(b1-4)GlcNAc(b1-3)Gal(b1-4)GlcNAc(b1-2)Man(a1-6)]Man(b1-4)GlcNAc(b1-4)[Fuc(a1-6)]GlcNAc
- ASSAY_TEXT: glycan array binding signal (z-score within array); higher = stronger binding
- CONDITION: glycan notation: IUPAC condensed, linker removed
The full list was thinned out, with the strongest signals kept by preference.
Where glycan array binding signal (z-score) equals or exceeds 4, the correct label is MET; where it does not, the label is NOT MET.

[[record]]
binder = "Gal 7 (Homo sapiens) (protein) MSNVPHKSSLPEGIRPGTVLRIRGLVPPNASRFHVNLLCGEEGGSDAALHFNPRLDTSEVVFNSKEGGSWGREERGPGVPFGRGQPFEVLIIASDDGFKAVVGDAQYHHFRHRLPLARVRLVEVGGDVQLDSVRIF"
group = "MET"

[[record]]
binder = "Erv46-EDTA (Saccharomyces cerevisiae), P39727 (protein) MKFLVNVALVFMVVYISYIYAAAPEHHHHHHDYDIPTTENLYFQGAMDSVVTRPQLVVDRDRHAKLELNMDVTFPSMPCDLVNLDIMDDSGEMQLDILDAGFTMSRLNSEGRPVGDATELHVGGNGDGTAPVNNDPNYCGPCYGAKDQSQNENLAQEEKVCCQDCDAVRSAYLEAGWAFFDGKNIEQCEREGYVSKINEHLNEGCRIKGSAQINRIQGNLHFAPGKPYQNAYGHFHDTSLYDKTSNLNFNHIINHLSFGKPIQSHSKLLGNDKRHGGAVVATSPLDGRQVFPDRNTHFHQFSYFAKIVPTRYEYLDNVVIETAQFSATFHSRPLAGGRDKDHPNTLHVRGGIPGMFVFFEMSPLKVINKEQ"
group = "NOT MET"

[[record]]
binder = "BTL (Bryothamnion triquetrum) (protein) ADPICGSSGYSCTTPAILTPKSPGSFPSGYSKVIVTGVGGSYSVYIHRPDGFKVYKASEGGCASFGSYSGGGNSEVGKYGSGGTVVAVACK"
group = "MET"

[[record]]
binder = "rCnSL-A (Clitocybe nebularis) (protein) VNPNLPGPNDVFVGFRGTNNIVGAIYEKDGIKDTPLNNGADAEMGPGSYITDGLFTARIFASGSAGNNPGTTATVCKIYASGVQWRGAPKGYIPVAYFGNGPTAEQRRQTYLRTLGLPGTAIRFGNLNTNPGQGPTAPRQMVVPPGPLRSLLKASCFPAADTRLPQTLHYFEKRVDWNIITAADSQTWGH"
group = "MET"

[[record]]
binder = "LCA (Lens culinaris), P02870 (protein) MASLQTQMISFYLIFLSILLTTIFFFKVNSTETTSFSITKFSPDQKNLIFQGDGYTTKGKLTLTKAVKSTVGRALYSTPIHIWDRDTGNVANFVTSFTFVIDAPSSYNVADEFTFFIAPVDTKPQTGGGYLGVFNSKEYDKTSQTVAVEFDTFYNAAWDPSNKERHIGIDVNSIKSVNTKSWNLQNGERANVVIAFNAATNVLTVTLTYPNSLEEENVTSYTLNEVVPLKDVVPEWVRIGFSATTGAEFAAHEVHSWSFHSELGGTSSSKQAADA"
group = "NOT MET"

[[record]]
binder = "pTFF2 (Sus scrofa), P01359 (protein) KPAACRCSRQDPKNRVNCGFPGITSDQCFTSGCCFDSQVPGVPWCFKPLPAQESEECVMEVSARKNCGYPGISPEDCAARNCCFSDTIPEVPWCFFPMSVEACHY"
group = "NOT MET"

